# maps each entry to its remaining at 1 h
Experiment: Metabolic stability in human liver microsomes assessed as compound remaining after 1 hr
Format: ADME, Microsome
Conditions: read-out: Stability
measurement_kind: remaining at 1 h (%)

compound="CCCOCCn1c(=O)nc(NC2CCC(O)CC2)c2nnc(-c3ccc(OC)nc3)cc21 (configuration not stated)" measurement_kind="remaining at 1 h" result_value=72
compound="CCCOCCn1c(=O)c(NC2CCC(O)CC2)nc2cnc(-c3ccc(OC)nc3)cc21 (configuration not stated)" measurement_kind="remaining at 1 h" result_value=84

###

Biological target: cGMP-inhibited 3',5'-cyclic phosphodiesterase 3A (Homo sapiens)
Sequence (Q14432 whole entry): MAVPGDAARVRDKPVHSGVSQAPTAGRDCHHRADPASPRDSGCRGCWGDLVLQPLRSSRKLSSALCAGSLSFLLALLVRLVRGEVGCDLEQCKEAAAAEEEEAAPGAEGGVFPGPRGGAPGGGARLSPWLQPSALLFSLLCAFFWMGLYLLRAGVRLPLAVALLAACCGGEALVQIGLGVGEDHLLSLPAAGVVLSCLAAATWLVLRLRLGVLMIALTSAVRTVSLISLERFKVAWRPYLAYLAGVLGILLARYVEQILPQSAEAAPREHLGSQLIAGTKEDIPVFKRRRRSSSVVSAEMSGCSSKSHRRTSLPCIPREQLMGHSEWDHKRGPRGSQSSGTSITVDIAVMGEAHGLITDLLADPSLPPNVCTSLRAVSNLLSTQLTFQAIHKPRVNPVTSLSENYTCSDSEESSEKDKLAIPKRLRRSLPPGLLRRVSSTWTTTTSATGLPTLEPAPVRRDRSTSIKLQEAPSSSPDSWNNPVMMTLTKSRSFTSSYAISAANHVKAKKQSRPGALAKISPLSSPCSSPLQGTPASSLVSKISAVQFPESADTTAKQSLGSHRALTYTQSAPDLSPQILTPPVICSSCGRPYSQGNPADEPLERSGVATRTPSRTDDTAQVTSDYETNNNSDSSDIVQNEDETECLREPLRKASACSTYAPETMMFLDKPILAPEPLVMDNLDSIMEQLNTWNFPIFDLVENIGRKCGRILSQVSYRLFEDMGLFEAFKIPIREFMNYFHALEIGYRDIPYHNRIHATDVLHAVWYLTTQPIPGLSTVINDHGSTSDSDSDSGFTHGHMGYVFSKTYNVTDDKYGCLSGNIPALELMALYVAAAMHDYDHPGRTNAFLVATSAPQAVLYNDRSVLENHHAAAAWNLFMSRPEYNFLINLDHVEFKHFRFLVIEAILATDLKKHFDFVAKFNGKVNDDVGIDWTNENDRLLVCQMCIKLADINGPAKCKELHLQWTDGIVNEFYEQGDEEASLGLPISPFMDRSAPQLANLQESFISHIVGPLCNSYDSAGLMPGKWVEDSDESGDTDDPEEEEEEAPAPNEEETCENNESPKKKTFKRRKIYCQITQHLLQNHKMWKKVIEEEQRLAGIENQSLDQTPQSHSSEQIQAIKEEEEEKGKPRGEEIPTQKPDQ
Assay: Inhibition of PDE3A
pIC50: −log10 of the molar value.
measurement_kind: pIC50

compound="CCCOCCn1c(=O)nc(NC2CCC(O)CC2)c2nnc(-c3ccc(OC)nc3)cc21 (stereo unspecified)" result_value="< 5.70"
